meta.source: patent US11173151B2

biological target: human V1a receptor (Homo sapiens, UniProt P37288); assay: Cellular in vitro assay for determining vasopressin receptor activity, V1a receptor cell line (CHO, aequorin luminescence); details: CHO cell line transfected with human V1a receptor; [Arg]-vasopressin at EC50 concentration; read-out: IC50 hV1a
Sequence (P37288 whole entry): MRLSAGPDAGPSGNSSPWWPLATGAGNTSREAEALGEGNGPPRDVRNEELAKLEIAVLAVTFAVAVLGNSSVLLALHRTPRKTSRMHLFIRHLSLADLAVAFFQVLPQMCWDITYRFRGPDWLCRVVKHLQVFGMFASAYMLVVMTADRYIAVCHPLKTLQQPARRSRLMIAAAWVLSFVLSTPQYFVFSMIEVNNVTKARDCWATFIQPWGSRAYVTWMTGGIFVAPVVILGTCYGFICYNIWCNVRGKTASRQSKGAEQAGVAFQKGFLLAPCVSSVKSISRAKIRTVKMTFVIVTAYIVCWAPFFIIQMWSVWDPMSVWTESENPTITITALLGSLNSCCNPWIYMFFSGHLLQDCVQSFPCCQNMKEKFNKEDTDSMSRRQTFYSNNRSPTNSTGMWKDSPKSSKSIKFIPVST
pIC50: −log10 of the molar value.
# cutoff 7 applies to pIC50; >= gives label 1, < gives label 0

1) O=C(Cn1cncn1)Nc1ncccc1-n1cnc(Cn2nc(-c3ccc(Cl)cc3)n(C[C@H](O)C(F)(F)F)c2=O)n1 ... label 1
2) O=C1CN(c2nc(Cn3nc(-c4ccc(Cl)cc4)n(C[C@H](O)C(F)(F)F)c3=O)nn2-c2cccnc2C(=O)N[C@@H]2C[C@@H]2F)CCN1 (racemic) ... label 0
3) NC(CNC(=O)c1ccccc1-n1cnc(Cn2nc(-c3ccc(Cl)cc3)n(C[C@H](O)C(F)(F)F)c2=O)n1)C(F)(F)C(F)F (mixture of isomers) ... label 1
4) Cc1cn(CC(=O)Nc2ncccc2-n2cnc(Cn3nc(-c4ccc(Cl)cc4)n(C[C@H](O)C(F)(F)F)c3=O)n2)nn1 ... label 0
5) CC1CCC(C)N1C(=O)c1ccccc1-n1cnc(Cn2nc(-c3ccc(Cl)cc3)n(C[C@H](O)C(F)(F)F)c2=O)n1 (mixture of isomers) ... label 1

* * *

Below, each entry is listed alongside its reported IC50.
target: human V1a receptor (Homo sapiens, UniProt P37288); assay: Cellular in vitro assay for determining vasopressin receptor activity, V1a receptor cell line (CHO, aequorin luminescence); settings: CHO cell line transfected with human V1a receptor; [Arg]-vasopressin at EC50 concentration; read-out: IC50 hV1a
Assay readout: IC50 (µM)

1) O=C(c1ccccc1-n1cnc(Cn2nc(-c3ccc(Cl)cc3)n(C[C@H](O)C(F)(F)F)c2=O)n1)N1CC(O)C1 ... 0.0091
2) O=C(NCc1ccccc1F)c1ccccc1-n1cnc(Cn2nc(-c3ccc(Cl)cc3)n(C[C@H](O)C(F)(F)F)c2=O)n1 ... 0.0055
3) CN1CCN(C(=O)c2ccccc2-n2cnc(Cn3nc(-c4ccc(Cl)cc4)n(C[C@H](O)C(F)(F)F)c3=O)n2)CC1=O ... 0.046
4) O=C(NCc1c(F)cccc1F)c1ccccc1-n1cnc(Cn2nc(-c3ccc(Cl)cc3)n(C[C@H](O)C(F)(F)F)c2=O)n1 ... 0.0057
5) O=C(c1cccc(Cl)c1-n1cnc(Cn2nc(-c3ccc(Cl)cc3)n(C[C@@H](O)C(F)(F)F)c2=O)n1)N1CCOCC1 ... 0.435
6) NC(=O)[C@H]1CC(F)(F)CN1C(=O)c1cccc(Cl)c1-n1cnc(Cn2nc(-c3ccc(Cl)cc3)n(C[C@H](O)C(F)(F)F)c2=O)n1 ... 0.052
7) NC(=O)[C@H]1CC(F)(F)CN1C(=O)c1cccc(Cl)c1-n1cnc(Cn2nc(-c3ccc(Cl)cc3)n(C[C@@H](O)C(F)(F)F)c2=O)n1 ... 0.18
8) O=C(NCCC(F)(F)F)c1ccncc1-n1nc(Cn2nc(-c3ccc(Cl)cc3)n(C[C@H](O)C(F)(F)F)c2=O)nc1C(=O)N1CCS(=O)(=O)CC1 ... 1.35
9) COC1CCCN(C(=O)c2ccccc2-n2cnc(Cn3nc(-c4ccc(Cl)cc4)n(C[C@H](O)C(F)(F)F)c3=O)n2)C1 (mixture of isomers) ... 0.0025
10) O=C(NCc1ccc(F)cc1)c1ccccc1-n1cnc(Cn2nc(-c3ccc(Cl)cc3)n(C[C@H](O)C(F)(F)F)c2=O)n1 ... 0.0087
11) O=C(c1ncccc1-n1cnc(Cn2nc(-c3ccc(Cl)cc3)n(C[C@@H](O)C(F)(F)F)c2=O)n1)N1CCCCC1 ... 0.15
12) Cn1nccc1CNC(=O)c1ccccc1-n1cnc(Cn2nc(-c3ccc(Cl)cc3)n(C[C@H](O)C(F)(F)F)c2=O)n1 ... 0.00145
13) O=C(NCC(F)(F)F)c1ccncc1-n1nc(Cn2nc(-c3ccc(Cl)cc3)n(C[C@H](O)C(F)(F)F)c2=O)nc1C(=O)N1CCS(=O)(=O)CC1 ... 0.955
14) O=C(Nc1ccccc1)c1ccccc1-n1cnc(Cn2nc(-c3ccc(Cl)cc3)n(C[C@H](O)C(F)(F)F)c2=O)n1 ... 0.00074
15) NC(=O)[C@H]1CC(F)(F)CN1c1ccncc1-n1cnc(Cn2nc(-c3ccc(Cl)cc3)n(C[C@H](O)C(F)(F)F)c2=O)n1 ... 0.33
16) O=C(Nc1ncccc1-n1cnc(Cn2nc(-c3ccc(Cl)cc3)n(C[C@H](O)C(F)(F)F)c2=O)n1)C1CCOCC1 ... 0.117
17) CC1(C)COCCN1C(=O)c1cccc(Cl)c1-n1cnc(Cn2nc(-c3ccc(Cl)cc3)n(C[C@@H](O)C(F)(F)F)c2=O)n1 ... 0.425
18) O=C(Nc1cccnc1-n1cnc(Cn2nc(-c3ccc(Cl)cc3)n(C[C@H](O)C(F)(F)F)c2=O)n1)C1CC1(F)F (single isomer, unassigned) [Example 43] ... 0.00585
19) O=C(CN1CCCC1=O)Nc1ncccc1-n1cnc(Cn2nc(-c3ccc(Cl)cc3)n(C[C@H](O)C(F)(F)F)c2=O)n1 ... 0.195
20) O=C(c1ccccc1-n1cnc(Cn2nc(-c3ccc(Cl)cc3)n(C[C@H](O)C(F)(F)F)c2=O)n1)N1CCCCC1 ... 0.0016
21) O=C(Nc1cccc[n+]1[O-])c1ccccc1-n1cnc(Cn2nc(-c3ccc(Cl)cc3)n(C[C@H](O)C(F)(F)F)c2=O)n1 ... 0.021
22) O=C(c1cccc(Cl)c1-n1cnc(Cn2nc(-c3ccc(Cl)cc3)n(C[C@H](O)C(F)(F)F)c2=O)n1)N1CCOCC1 ... 0.078
23) O=C(NCC(F)(F)F)c1cc(F)ccc1-n1cnc(Cn2nc(-c3ccc(Cl)cc3)n(C[C@H](O)C(F)(F)F)c2=O)n1 ... 0.019
24) CC(=O)Nc1cccnc1-n1cnc(Cn2nc(-c3ccc(Cl)cc3)n(C[C@H](O)C(F)(F)F)c2=O)n1 ... 0.0042
25) Cc1cc(C(=O)Nc2ncccc2-n2cnc(Cn3nc(-c4ccc(Cl)cc4)n(C[C@H](O)C(F)(F)F)c3=O)n2)on1 ... 0.08

* * *

molecular target: human V1a receptor (Homo sapiens); construct: expressed in transfected cells; host or cells: CHO K1 (ATCC), also stably transfected with a modified aequorin; assay: Cellular in vitro assay for determining vasopressin receptor activity, V1a receptor cell line (CHO, aequorin luminescence); format: cell-based; settings: selectivity ratio IC50 hV2 / IC50 hV1a
Assay readout: ratio IC50 hV2/hV1a

1) O=C(N[C@H]1C[C@@H]1F)c1ncccc1-n1nc(Cn2nc(-c3ccc(Cl)cc3)n(C[C@@H](O)C(F)(F)F)c2=O)nc1N1CCS(=O)(=O)CC1 (racemic) ... 18.9
2) O=C(N[C@H]1CC[C@H](O)CC1)c1ccccc1-n1cnc(Cn2nc(-c3ccc(Cl)cc3)n(C[C@H](O)C(F)(F)F)c2=O)n1 ... 263.7
3) O=C(Nc1n[nH]cc1Cl)c1ccccc1-n1cnc(Cn2nc(-c3ccc(Cl)cc3)n(C[C@H](O)C(F)(F)F)c2=O)n1 ... 24.4

* * *

molecular target: human V1a receptor (Homo sapiens, UniProt P37288); test: Cellular in vitro assay for determining vasopressin receptor activity, V1a receptor cell line (CHO, aequorin luminescence); conditions: CHO cell line transfected with human V1a receptor; [Arg]-vasopressin at EC50 concentration; read-out: IC50 hV1a
pIC50: −log10 of the molar value.
Assay readout: pIC50

1) O=C(Nc1ncccc1-n1cnc(Cn2nc(-c3ccc(Cl)cc3)n(C[C@H](O)C(F)(F)F)c2=O)n1)c1ccc(F)cc1 ... 7.28
2) CC1CCCCC1NC(=O)c1ccccc1-n1cnc(Cn2nc(-c3ccc(Cl)cc3)n(C[C@H](O)C(F)(F)F)c2=O)n1 (mixture of isomers) ... 8.45
3) O=C(Nc1ncccc1-n1cnc(Cn2nc(-c3ccc(Cl)cc3)n(C[C@H](O)C(F)(F)F)c2=O)n1)c1csnn1 ... 7.58
4) COC[C@H]1CCCN1C(=O)c1ccccc1-n1cnc(Cn2nc(-c3ccc(Cl)cc3)n(C[C@H](O)C(F)(F)F)c2=O)n1 ... 7.81
5) O=C(NC1CCOC1=O)c1ccccc1-n1cnc(Cn2nc(-c3ccc(Cl)cc3)n(C[C@H](O)C(F)(F)F)c2=O)n1 (mixture of isomers) ... 8.52
6) O=C(Nc1ncccc1-n1cnc(Cn2nc(-c3ccc(Cl)cc3)n(C[C@H](O)C(F)(F)F)c2=O)n1)C1CC1(F)F (mixture of isomers) ... 8.18
7) O=C(NC1CC(F)(F)C1)c1cccc(Cl)c1-n1cnc(Cn2nc(-c3ccc(Cl)cc3)n(C[C@@H](O)C(F)(F)F)c2=O)n1 ... 6.72
8) O=C(NCC(O)C(F)(F)F)c1cccc(Cl)c1-n1cnc(Cn2nc(-c3ccc(Cl)cc3)n(C[C@H](O)C(F)(F)F)c2=O)n1 (mixture of isomers) ... 7.35
9) CC1(C)CCCN(C(=O)c2ccccc2-n2cnc(Cn3nc(-c4ccc(Cl)cc4)n(C[C@H](O)C(F)(F)F)c3=O)n2)C1 ... 8.36
10) CC1(NC(=O)c2cccnc2-n2cnc(Cn3nc(-c4ccc(Cl)cc4)n(C[C@H](O)C(F)(F)F)c3=O)n2)CC1 ... 8.98
11) O=C1CN(C(=O)c2nc(Cn3nc(-c4ccc(Cl)cc4)n(C[C@H](O)C(F)(F)F)c3=O)nn2-c2ncccc2C(=O)NC2CC2)CCN1 ... 5.62
12) O=C(Nc1ccncc1-n1cnc(Cn2nc(-c3ccc(Cl)cc3)n(C[C@H](O)C(F)(F)F)c2=O)n1)[C@@H]1C[C@@H]1F (single isomer, unassigned) [Example 35] ... 7.98
13) O=C(c1ccccc1-n1cnc(Cn2nc(-c3ccc(Cl)cc3)n(C[C@H](O)C(F)(F)F)c2=O)n1)N1CCC(F)(F)C1 ... 8.44
14) O=C(NC1CC1(F)F)c1cccc(Cl)c1-n1cnc(Cn2nc(-c3ccc(Cl)cc3)n(C[C@@H](O)C(F)(F)F)c2=O)n1 (mixture of isomers) ... 7.09
15) COC[C@H]1CCCN1C(=O)c1cccnc1-n1cnc(Cn2nc(-c3ccc(Cl)cc3)n(C[C@H](O)C(F)(F)F)c2=O)n1 ... 7.52
16) O=C(NN1CCOCC1)c1ccccc1-n1cnc(Cn2nc(-c3ccc(Cl)cc3)n(C[C@H](O)C(F)(F)F)c2=O)n1 ... 7.76
17) COCC1CCCN1C(=O)c1cccnc1-n1nc(Cn2nc(-c3ccc(Cl)cc3)n(C[C@H](O)C(F)(F)F)c2=O)nc1C(=O)N1CCS(=O)(=O)CC1 (mixture of isomers) ... 6.56
18) CCc1cc(C(=O)Nc2ncccc2-n2cnc(Cn3nc(-c4ccc(Cl)cc4)n(C[C@H](O)C(F)(F)F)c3=O)n2)on1 ... 7.47
19) O=C(Nc1cccnc1-n1cnc(Cn2nc(-c3ccc(Cl)cc3)n(C[C@H](O)C(F)(F)F)c2=O)n1)C1CCS(=O)(=O)C1 (single isomer, unassigned) [Example 51] ... 8.30
20) O=C(N[C@H]1CC[C@H](O)CC1)c1ccccc1-n1cnc(Cn2nc(-c3ccc(Cl)cc3)n(C[C@H](O)C(F)(F)F)c2=O)n1 ... 8.34
21) O=C(NC1CCCCCC1)c1ccccc1-n1cnc(Cn2nc(-c3ccc(Cl)cc3)n(C[C@H](O)C(F)(F)F)c2=O)n1 ... 8.21
22) O=C(NCCC(F)(F)F)c1cccc(Cl)c1-n1cnc(Cn2nc(-c3ccc(Cl)cc3)n(C[C@H](O)C(F)(F)F)c2=O)n1 ... 7.65
23) CC(C)(N)CNC(=O)c1cc(Cl)ccc1-n1cnc(Cn2nc(-c3ccc(Cl)cc3)n(C[C@H](O)C(F)(F)F)c2=O)n1 ... 8.28
24) COCC1CCCN1C(=O)c1ccncc1-n1cnc(Cn2nc(-c3ccc(Cl)cc3)n(C[C@H](O)C(F)(F)F)c2=O)n1 (mixture of isomers) ... 7.87
